- Target Of Assay: UniProtKB P14174
- Procedure Details: Nuclease assay of Example 3 (MIF inhibitory activity, Table 4)
- Type: biochemical
- Set-up: concentration or dose not given beside the values
- Details: nuclease assay of Example 3
Listing of recorded (%) inhibition of MIF nuclease activity by entry.
Quantity Name: (%) inhibition of MIF nuclease activity

compound="COc1ccc(CC[C@H]2OC(=O)[C@@H]3CCCCN3C(=O)C(=O)C(C)(C)COC(=O)C=CCCN(C)C(=O)[C@H](C(C)C)NC(=O)[C@H](Cc3ccccc3)N(C)C(=O)[C@@H](C)NC(=O)CN(C)C(=O)COc3cccc2c3)cc1OC [compound 74]" unit_string=% value_reported=31.5
compound="COc1ccc(CC[C@H]2OC(=O)[C@@H]3CCCCN3C(=O)C(=O)C(C)(C)COC(=O)C=CCCN(C)C(=O)[C@@H]3CCCN3C(=O)[C@H](COC(C)(C)C)N(C)C(=O)C(Cc3ccc(O)cc3)NC(=O)[C@H](C)NC(=O)COc3cccc2c3)cc1OC (some centres unmarked) [compound 142]" unit_string=% value_reported=−4.7

====

- Target Of Assay: UniProt P14174
- Sequence (P14174 1-115): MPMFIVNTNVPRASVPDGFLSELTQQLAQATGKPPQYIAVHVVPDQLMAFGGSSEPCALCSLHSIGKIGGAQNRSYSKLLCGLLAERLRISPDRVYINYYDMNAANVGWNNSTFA
- Procedure Details: Nuclease assay of Example 3 (MIF inhibitory activity, Table 4)
- Format: biochemical
- Parameters: concentration or dose not given beside the values
- Details: nuclease assay of Example 3
Listing of recorded (%) inhibition of MIF nuclease activity by entry.
Quantity Name: (%) inhibition of MIF nuclease activity

compound=COc1ccc(CC[C@H]2OC(=O)[C@@H]3CCCCN3C(=O)C(=O)C(C)(C)COC(=O)C=CCCN(C)C(=O)[C@@H]3CCCN3C(=O)[C@H](COC(C)(C)C)N(C)C(=O)[C@H](Cc3ccncc3)NC(=O)[C@H](C)N(C)C(=O)COc3cccc2c3)cc1OC value_reported=13.2
compound="COc1ccc(CC[C@H]2OC(=O)[C@@H]3CCCCN3C(=O)C(=O)C(C)(C)COC(=O)C=CCCN(C)C(=O)[C@H](CC3CCCCC3)NC(=O)[C@H](COC(C)(C)C)N(C)C(=O)C(c3ccccc3)NC(=O)CN(C)C(=O)COc3cccc2c3)cc1OC (some centres unmarked)" value_reported=40.8
compound=COc1ccc(CC[C@H]2OC(=O)[C@@H]3CCCCN3C(=O)C(=O)C(C)(C)COC(=O)C=CCCN(C)C(=O)[C@H](CC3CCCCC3)NC(=O)[C@H](C(C)C)N(C)C(=O)[C@@H](Cc3ccccc3)NC(=O)[C@H](CC(C)C)N(C)C(=O)CCC(=O)Nc3cccc2c3)cc1OC value_reported=17.1
compound=COCC[C@@H]1NC(=O)[C@H](COC(C)(C)C)N(C)C(=O)[C@@H](CC(C)C)NC(=O)CN(C)C(=O)COc2cccc(c2)[C@@H](CCc2ccc(OC)c(OC)c2)OC(=O)[C@@H]2CCCCN2C(=O)C(=O)C(C)(C)COC(=O)C=CCCN(C)C1=O value_reported=10.7
compound=COc1ccc(CC[C@H]2OC(=O)[C@@H]3CCCCN3C(=O)C(=O)C(C)(C)COC(=O)C=CCCN(C)C(=O)[C@@H](Cc3ccccc3)NC(=O)[C@H](C(C)C)N(C)C(=O)[C@@H](Cc3ccccc3)NC(=O)[C@H](CC(C)C)N(C)C(=O)CCC(=O)Nc3cccc2c3)cc1OC value_reported=10.8
compound="COc1ccc(CC[C@H]2OC(=O)[C@@H]3CNCCN3C(=O)C(=O)C(C)(C)COC(=O)C=CCCN(C)C(=O)[C@@H]3CCCN3C(=O)[C@H](COC(C)(C)C)N(C)C(=O)C(c3ccccc3)NC(=O)[C@H](C)N(C)C(=O)COc3cccc2c3)cc1OC (some centres unmarked)" value_reported=11.0
compound="COc1ccc(CC[C@H]2OC(=O)[C@@H]3CCCCN3C(=O)C(=O)C(C)(C)COC(=O)C=CCCN(C)C(=O)[C@@H]3CCCN3C(=O)[C@H](COC(C)(C)C)N(C)C(=O)C(c3ccccc3)NC(=O)[C@H](Cc3ccc(O)cc3)N(C)C(=O)COc3cccc2c3)cc1OC (some centres unmarked)" value_reported=12.0
compound=COc1ccc(CC[C@H]2OC(=O)[C@@H]3CCCCN3C(=O)C(=O)C(C)(C)COC(=O)C=CCCN(C)C(=O)[C@@H]3CCCN3C(=O)[C@H](COC(C)(C)C)N(C)C(=O)[C@@H](CC(C)C)NC(=O)CN(C)C(=O)COc3cccc2c3)cc1OC value_reported=25.6
